test system: T24 cell line; experiment: Cytotoxicity MTS assay, T24 cell line; format: cell-based; conditions: T24 cell line, 0.5μM, first assay;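 also: blank control wells received 0.025% DMSO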
// values below are reported OD490 Well 1
Respond using a number only.

Sample answers from the record:
{"COMPOUND": "CCOC(=O)c1[nH]c(C2NC(=S)NC(C)=C2C(=O)OC)c(C(=O)OCC)c1C (stereo not shown)", "OD490 Well 1": 1.0855}
{"COMPOUND": "CCOC(=O)c1c(C2NC(=O)NC(C)=C2C(=O)Nc2ccccc2)[nH]c(C(=O)OC)c1C (stereo not shown)", "OD490 Well 1": 1.3871}
{"COMPOUND": "CCOC(=O)c1[nH]c(C2NC(=O)NC(C)=C2C(=O)Nc2ccccc2OC)c(C(=O)OC)c1C (stereo not shown)", "OD490 Well 1": 1.9267}

The record that follows has no OD490 Well 1 shown yet.
Request: Return OD490 Well 1 (reported value) for this compound: CCOC(=O)C1=C(C)NC(=S)NC1c1cccc(O)c1 (stereo not shown) [Monastrol, monastrol, reference compound]
Response: 1.3936

* * *

System: L929 cell line
Test: Cytotoxicity MTS assay, L929 cell line
Assay type: cell-based
Settings: L929 cell line, 10μM, first assay
Protocol: The positive compounds (IC50 < 100 μM) obtained from the primary Eg5 motor protein ATPase assay were tested for antiproliferative activity in vitro against Caco-2 cell line, Hela cell line, L929 cell line and T24 cell line by performing MTS assay. Cells were introduced into 96-well plates at a density of 1000 cells per well. After 24 h incubation, the cells were exposed with compounds at final concentrations ranging from 0.5 to 100 µM for 24 h. […]
RECORDED METRIC: OD490 values, Well 1
Respond using a number only.

{"COMPOUND": "CCOC(=O)c1[nH]c(C2NC(=O)NC(C)=C2C(=O)Nc2ccccc2C)c(C(=O)OC)c1C (stereo not drawn) [D4]", "OD490 values, Well 1": 1.1408}
{"COMPOUND": "CCOC(=O)c1c(C2NC(=O)NC(C)=C2C(=O)Nc2ccccc2C)[nH]c(C(=O)OC)c1C (stereo not drawn) [D2]", "OD490 values, Well 1": 1.4578}

Request: Param request: OD490 values, Well 1 | system L929 cell line | item CCOC(=O)c1[nH]c(C2NC(=S)NC(C)=C2C(=O)OC)c(C(=O)OCC)c1C (stereo not drawn) [D12]
Response: 1.2175

Request: Param request: OD490 values, Well 1 | system L929 cell line | item CCOC(=O)c1[nH]c(C2NC(=O)NC(C)=C2C(=O)Nc2ccc(Cl)cc2)c(C(=O)OCC)c1C (stereo not drawn) [D7]
Response: 1.2982

Request: Param request: OD490 values, Well 1 | system L929 cell line | item CCOC(=O)c1c(C2NC(=O)NC(C)=C2C(=O)Nc2ccccc2OC)[nH]c(C(=O)OC)c1C (stereo not drawn) [D1]
Response: 1.3870

Request: Param request: OD490 values, Well 1 | system L929 cell line | item CCOC(=O)c1c(C2NC(=O)NC(C)=C2C(=O)Nc2ccccc2)[nH]c(C(=O)OC)c1C (stereo not drawn) [D10]
Response: 1.1874

Request: Param request: OD490 values, Well 1 | system L929 cell line | item COC(=O)c1[nH]c(C2NC(=S)NC(C)=C2C(=O)c2ccccc2)c(C(=O)OC)c1C (stereo not drawn) [D14]
Response: 1.2039

Request: Param request: OD490 values, Well 1 | system L929 cell line | item CCOC(=O)c1[nH]c(C2NC(=O)NC(C)=C2C(=O)Nc2ccccc2OC)c(C(=O)OC)c1C (stereo not drawn) [D3]
Response: 1.4568

Request: Param request: OD490 values, Well 1 | system L929 cell line | item CCOc1ccccc1C1NC(=S)NC(C)=C1C(=O)Nc1ccc(Cl)cc1 (stereo not drawn) [C9]
Response: 1.1842
